Listed next: entries and their corresponding EC50.
- experimental_system: T1, human CLDN18.2 (human)
- T1 construct: also called hCLDN18.2; Claudin-18 splice variant 2
- protocol_notes: flow cytometry on HEK293-CLDN18.2 cells; unit taken from the concentration axis
readout_name: EC50

{"columns": ["binder", "readout_name", "test_result"],
 "data": [
  ["18B10-C (antibody, human IgG1, V domains shown, also called chimeric 18B10) VH: EFQLQQSGPELEKPGASVRISCKTSGYSFTGYNMNWVKQSNGESLEWIGNIDPYYGGTSYNQKFKGKATLTVDKSSSTAYMQLKSLTSEDSAVYYCARMYHGNAFDYWGQGTTLTVSS VL: DIVMTQSPSSLTVTAGEKVTMSCKSSQSLLNSGNLKNYLTWYQQKPGQPPKLLIYWASTRKSGVPDRFTGSGSGTDFTLTLSSVQAEDLAVYYCQNDYSYPLTFGAGTKLELK", "EC50", "1.35 µg/mL"],
  ["18B10-HaLb (antibody, human IgG1, kappa, V domains shown, humanized 18B10, human IgG1 / kappa) VH: QVQLVQSGAEVKKPGASVKVSCKASGYTFTGYNMNWVRQAPGQGLEWMGNIDPYYGGTSYNQKFKGRVTMTIDKSTSTVYMELSSLRSEDTAVYYCARMYHGNAFDYWGQGTTVTVSS VL: DIVMTQSPDSLAVSLGERATMNCKSSQSLLNSGNLKNYLTWYQQKPGQPPKLLIYWASTRKSGVPDRFTGSGSGTDFTLTISSLQAEDVAVYYCQNDYSYPLTFGGGTKVEIKR", "EC50", "1.27 µg/mL"]
]}
